src = PubChem BioAssay (NCI)

growth for assorted compounds
# Tested on: SR leukemia
# test method notes: NCI-60 one-dose screen, 48 h (100 = growth as untreated, 0 = no growth, -100 = all killed)
# conditions: 10 µM unless noted
This is part of a sample that, as a whole, favours compounds with a hit. Of some 83,000 tested, about 20% had one in any assay.
observed property: growth (%)

INSERT INTO assay_data (compound, observed_property, measured) VALUES
  ('O=C(Nc1ccc(F)cc1)Nc1ccc(CCO)cc1', 'growth', 103),
  ('CCCCCCCCCCCCCCCCCCNC(=O)[C@H]1CSC(c2ccc(F)c(OC)c2)N1 (stereo not given in full)', 'growth', -42.1),
  ('C=C(C[n+]1ccccc1)[C@@H]1CC[C@]2(C(=O)OC)CC[C@]3(C)[C@H](CC[C@@H]4[C@@]5(C)CC[C@H](O)C(C)(C)[C@@H]5CC[C@]43C)[C@@H]12', 'growth', 108),
  ('C=C1CC[C@@H]2[C@](C)(COC(C)=O)[C@H](OC(C)=O)CC[C@@]2(C)[C@@H]1CC(NCc1ccc(F)cc1)C1=CCOC1=O (stereo not given in full)', 'growth', 7.69),
  ('O=S(=O)(NCCCNc1cc(-c2cn(-c3ccccc3)nc2-c2ccccc2)ccn1)c1ccc(C(F)(F)F)cc1', 'growth', 39.3),
  ('C=CC[N+]1(CC)CCN=C1CCCCCCCCCCCCCCCCC (stereo not given)', 'growth', -64.7),
  ('CCCCCCCCCCNC(=O)CCl', 'growth', 51.4),
  ('O=C1/C(=C/c2ccc(Cl)cc2Cl)CN(S(=O)(=O)c2ccccc2)C/C1=C\c1ccc(Cl)cc1Cl', 'growth', -11.6),
  ('c1ccc(-c2nc(N3CCOCC3)c3c4c(sc3n2)CCCCC4)nc1', 'growth', 59.6),
  ('COc1cccc(-c2nc3sccn3c2-c2ccnc(NCCCNS(=O)(=O)c3ccc(Cl)cc3)c2)c1', 'growth', 50),
  ('COc1c(C2CC(=O)Nc3c2cnn3Cc2ccco2)cc2c(c1OC)OCO2 (stereo not given)', 'growth', 2.13),
  ('COC(/C=C/c1ccc([N+](=O)[O-])cc1)OC', 'growth', 31.6),
  ('c1ccc(CSc2ncnc3nc[nH]c23)nc1', 'growth', 103),
  ('COc1ccccc1N1CCN(CCn2c(=O)c3c(c4ccccc4n3C)n(C)c2=O)CC1', 'growth', 78),
  ('COc1ccc2c(c1)C(=O)/C(=C/c1cccc(OCC(=O)Nc3nc4c(s3)CCCC4)c1)O2', 'growth', -17.2),
  ('C(=N\Nc1ccccn1)/c1ccccn1', 'growth', 15.8),
  ('O=C(CN1CCN(c2cc3c(cc2F)c(=O)c(C(=O)N/N=C/c2ccccc2)cn3C2CC2)CC1)N/N=C\c1ccccc1', 'growth', 61),
  ('O=C1/C(=C/c2ccccc2)CN(CCC(=O)N2C/C(=C\c3ccccc3)C(=O)/C(=C/c3ccccc3)C2)C/C1=C\c1ccccc1', 'growth', 16.5),
  ('COc1cc(OC)c(/C=C/S(=O)(=O)Cc2ccc(OC)c(N)n2)c(OC)c1', 'growth', 0.349),
  ('Cc1noc(C)c1-c1cc(O)cc(C(O)c2ccccc2)c1 (stereo not given)', 'growth', 27.1);
